Header: IC50 / Lysine-specific demethylase 3A (Homo sapiens, UniProt Q9Y4C1) / multiple publications
Could you please mark 1 (yes) for values of IC50 below 10 µM and 0 (no) for values at or above it?

Some solved cases for reference:
- molecule: "Cc1cc(Cl)ccc1COc1ccnn1-c1cc(C(=O)O)ccn1"
  group-label: "1 (yes)"
- molecule: "COC(=O)c1ccnc(-c2cc(C(=O)O)ccn2)c1"
  group-label: "1 (yes)"
- molecule: "N[C@H]1C[C@@H]1c1ccc(NC(=O)CCCNC(=O)c2ccc(O)c3ncccc23)cc1 (relative stereo)"
  group-label: "0 (no)"
- molecule: "CCN(CCN(C)C)C(=O)CNCc1cc(C(=O)O)ccn1"
  group-label: "0 (no)"

Request: Lab note: IC50 threshold 10 µM. Does this molecule come in strictly under it? "CCCCCCCCN(CCCC)CCCCC(=O)N(O)CCC(=O)O"
Result: 0 (no)

Request: Confirm or reject: IC50 of COC(=O)c1ccnc(-c2cc(C(=O)Nc3ccc([C@@H]4C[C@H]4N)cc3)ccn2)c1.Cl (relative stereo) lies strictly below 10 µM
Result: 0 (no)
